# Test system: PC-3M
# ASSAY_DETAILS: Anticancer activity in human PC-3M cells expressing PTB/GFP fusion protein assessed as perinucleolar compartment disassembly and measured after 24 hrs by Hoechst 33342 staining based microscopic method
# Type: functional, cell-based
# EXPERIMENTAL_CONDITIONS: read-out: pIC50 (converted)
ASSAY_METRIC: IC50 (µM)
Unit µM implied. Number only.

Look over these answered cases.
N=c1c2c(-c3ccccc3)c(-c3ccccc3)n(Cc3ccccc3)c2ncn1CCCCO :: 4.27
N=c1c2c(-c3ccccc3)c(-c3ccccc3)n(Cc3ccccc3)c2ncn1C1CCC(=O)CC1 :: 0.302
CN(C)CCCn1cnc2c(c(-c3ccccc3)c(-c3ccccc3)n2Cc2ccccc2)c1=N :: 12.6
N=c1c2c(-c3ccccc3)c(-c3ccccc3)n(CC3CC3)c2ncn1CC1CCOCC1 :: 33.9
N=c1c2c(-c3ccccc3)c(-c3ccccc3)n(Cc3ccc(OC(F)(F)F)cc3)c2ncn1C1CCOCC1 :: 0.955

If you can, please state the reported IC50 value of N=c1c2c(-c3ccccc3)c(-c3ccccc3)n(Cc3ccccc3)c2ncn1CC1CCOC1 (centres undefined) . 10.7

If you can, please state the reported IC50 value of N=c1c2c(-c3ccccc3)c(-c3ccccc3)n(Cc3ccccc3)c2ncn1CCCN1CCN(c2ccccc2)CC1 . 23.4

If you can, please state the reported IC50 value of CCOC(CCCn1cnc2c(c(-c3ccccc3)c(-c3ccccc3)n2Cc2ccccc2)c1=N)OCC . 23.4

If you can, please state the reported IC50 value of N=c1c2c(-c3ccccc3)c(-c3ccccc3)n(Cc3ccccc3)c2ncn1C[C@@H]1CCCC[C@H]1O (relative stereo) . 2

Ref: ChEMBL document CHEMBL5154945
